- Experimental details: chemical genetic growth profiling, strain panel (AID 1159580);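 further: tested at 20 µM; growth read once vehicle control cultures reached saturation at 30 °C; lower values mean less growth of the strain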
- Experimental context: S. cerevisiae deletion strains, growth OD, locus YDR137W, strain rgp1
About 2,000 (36%) of roughly 5,500 compounds were called active. Inconclusive results (about 18%) are left out. No stated cut-off is given here; in the data, active means normalized growth mostly below about 0.91 (no sharp cut-off); inconclusive means no clear call, values can overlap the other calls; inactive means mostly above about 0.92. This is one part of the list.
Reply using exactly one outcome from active, inactive

Prompt line: Record request — test call for C#CCCCCCCCCCCCC(O)CC(O)COC(C)=O (stereo not drawn)
Response line: active

Prompt line: Do the same for C=CCCCCCCCCCCCC(O)CC(O)COC(C)=O (stereo not drawn) (tested in a mixture with another compound) please
Response line: inactive

Prompt line: Can you check O=S1OCC2C(CO1)C1(Cl)C(Cl)=C(Cl)C2(Cl)C1(Cl)Cl (stereo not drawn) next?
Response line: active

Prompt line: Can you handle C=C1C(=O)O[C@@H]2C[C@@]3(C)CCC[C@H](C)C3=C[C@H]12 next?
Response line: active

Prompt line: Here is the next compound: C#CCCCCCCCCCCCC(O)CC(O)CO (stereo not drawn)
Response line: inactive

Prompt line: Another compound: Nc1ccc(N=Nc2ccccc2)c(N)n1
Response line: active

Prompt line: Would you kindly repeat that for CCOC(=O)[C@H](CCc1ccccc1)N[C@@H](C)C(=O)N1[C@H](C(=O)O)C[C@@H]2CCC[C@@H]21 ?
Response line: inactive

Prompt line: Cc1cccc(Nc2ccccc2C(=O)O)c1C ?
Response line: active

Prompt line: Same question, O=C1OC(c2ccc(O)cc2)(c2ccc(O)cc2)c2ccccc21 this time
Response line: inactive

Prompt line: Query O=C1CC2OCC=C3CN4CC[C@]56c7ccccc7N1C5[C@H]2[C@H]3CC46 (stereo partly drawn) next
Response line: inactive

Prompt line: Moving on to O=C(O)c1ccccc1-c1c2cc(Br)c(=O)cc-2oc2[c]([Hg])c(O)c(Br)cc12
Response line: active

Prompt line: Next compound: CCCCCCCCCCCCCCCC(=O)OC1C(SC)OC(C(NC(=O)C2CC(CCC)CN2C)C(C)Cl)C(O)C1O (stereo not drawn)
Response line: inactive

Prompt line: Then OC(Cn1cncn1)(Cn1cncn1)c1ccc(F)cc1F ?
Response line: active
